Origin of the recorded values: patent US20200291086A1

Below, each entry is listed with its recorded half-life at 1 mg/mL.
EXPERIMENTAL PROTOCOL: Determination of half life in PBS: cleavage of promoieties from capped model peptides
Type: physicochemical
PROTOCOL CONDITIONS: PBS, 37° C., 1 mg/mL, RP-HPLC; read-out: t 1/2 (h), cleavage of promoiety linked to N terminus of model peptide X-[…] (converted)
Experimental: Determination Of half Life in PBS Polypeptides GIVEQAA-NH2 (SEQ ID NO: 57) and […] […] The promoiety capped model peptide was dissolved at 1 mg/mL concentration in PBS and the solution was incubated at 37° C. in a water bath. […] RP-HPLC was used to monitor the cleavage reactions and the cleavage rates were quantitatively studied by measuring the peak areas of the promoiety capped and released model peptides. […] The rate of cleavage was determined for the respective promoiety capped model peptides. […]
Numbered stars: 1 amine (or outer) side, 2 acyl side, 3 side chain; on linkers, the order of the positions; unused ones are H or OH. Square brackets hold non-standard residues; d marks the D form. Peptide text beside a SMILES is read from it. * marks the point of attachment. Phenylacetic(2-CH2NH2) = O=C(Cc1ccccc1CN[*:1])[*:2]; X2 = O=C([C@@H]1Cc2ccccc2N1[*:1])[*:2]; X11 = NCCCNC(=O)c1ccc(C(=O)*)c(CN)c1; X7 = NCc1cccnc1C(=O)*
Hi! Could you send only the number? It should be in h, unit omitted.

MOLECULE | half-life at 1 mg/mL, h
CC[C@H](C)[C@H](NC(=O)CNC(=O)c1ncccc1CN)C(=O)N[C@H](C(=O)N[C@@H](CCC(=O)O)C(=O)N[C@@H](CCC(N)=O)C(=O)N[C@@H](C)C(=O)N[C@@H](C)C(=O)N[C@@H](Cc1ccc(O)cc1)C(=O)O)C(C)C (X7-GIVEQAAY-OH; C-terminus assumed) | 597
CC[C@H](C)[C@H](NC(=O)CNC(=O)c1ccc(C(=O)NCCCN)cc1CN)C(=O)N[C@H](C(=O)N[C@@H](CCC(=O)O)C(=O)N[C@@H](CCC(N)=O)C(=O)N[C@@H](C)C(=O)N[C@@H](C)C(=O)N[C@@H](Cc1ccc(O)cc1)C(=O)O)C(C)C (X11-GIVEQAAY-OH) | 112
CC[C@H](C)[C@H](NC(=O)CNC(=O)Cc1ccccc1CN)C(=O)N[C@H](C(=O)N[C@@H](CCC(=O)O)C(=O)N[C@@H](CCC(N)=O)C(=O)N[C@@H](C)C(=O)N[C@@H](C)C(=O)N[C@@H](Cc1ccc(O)cc1)C(=O)O)C(C)C ({Phenylacetic(2-CH2NH2)}-GIVEQAAY-OH; C-terminus assumed) | 482

Note: attention shifts to another entry.
Record CC[C@H](C)[C@H](NC(=O)CNC(=O)[C@@H]1Cc2ccccc2N1C(=O)[C@H](C)N)C(=O)N[C@H](C(=O)N[C@@H](CCC(=O)O)C(=O)N[C@@H](CCC(N)=O)C(=O)N[C@@H](C)C(=O)N[C@@H](C)C(=O)N[C@@H](Cc1ccc(O)cc1)C(=O)O)C(C)C [NH2-Ala-Indo2CA] (H-A[X2]GIVEQAAY-OH; C-terminus assumed) . Reported half-life at 1 mg/mL: 3.4
